- System: acetylcholine muscarinic M1 receptor (Homo sapiens, UniProt P11229)
- Construct: expressed in transfected cells; host or cells: CHOnfat cells (CHO cells with an NFAT reporter) expressing hM1, kept under Geneticin selection
- Sequence (P11229 1-460): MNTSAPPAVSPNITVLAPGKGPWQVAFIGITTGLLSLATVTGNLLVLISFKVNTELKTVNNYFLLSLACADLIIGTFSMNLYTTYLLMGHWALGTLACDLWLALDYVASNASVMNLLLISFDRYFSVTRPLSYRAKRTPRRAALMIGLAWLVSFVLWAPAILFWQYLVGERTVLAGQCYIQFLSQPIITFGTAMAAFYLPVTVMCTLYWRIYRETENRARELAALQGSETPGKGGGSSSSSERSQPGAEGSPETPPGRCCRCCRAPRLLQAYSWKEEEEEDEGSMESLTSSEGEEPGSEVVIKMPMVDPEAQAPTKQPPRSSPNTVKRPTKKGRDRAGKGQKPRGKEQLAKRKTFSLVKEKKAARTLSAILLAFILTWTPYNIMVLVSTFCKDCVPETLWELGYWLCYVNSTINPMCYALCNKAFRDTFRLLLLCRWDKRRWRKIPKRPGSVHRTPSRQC
- Assay: muscarinic FLIPR assay: intracellular calcium in CHOnfat/hM1 cells, potentiation of EC20 acetylcholine
- Assay type: cell-based
- Study conditions: Table 2; CHOnfat/hM1 cells, FLIPR, EC20 acetylcholine (3 nM final); read-out: M1 Pot.
Quantity kind: EC50 (nM)
Expressed in nM, but write only the number.

## Task Find the measured EC50 of O=C1c2cc(CN3CCC(F)(F)CC3)c3cccnc3c2CN1C1CCCCC1O (centres unmarked) [Example 116] and report it.
## Result 21

## Task Identify measured EC50 corresponding to COc1ccc(N2CCN(Cc3cc4c(c5ncccc35)C(C)N(C3CCCCC3O)C4=O)CC2)cc1 (centres unmarked) [Example 170]
## Result 100

## Task Recall and state the measured EC50 for O=C1c2cc(CN3CCN(c4ccccc4)CC3)c3cccnc3c2CN1C1CCCCC1O (centres unmarked) [Example 174] .
## Result 18

## Task Look up EC50 of O=C1c2cc(CN3CCC4(CC3)COc3ccccc34)c3cccnc3c2CN1C1CCCCC1O (centres unmarked) [Example 95] and report it.
## Result 290

## Task Determine its reported EC50: CC1c2c(cc(CN3CCC(c4ccccc4)CC3)c3cccnc23)C(=O)N1C1CCCCC1O (centres unmarked) [Example 141]
## Result 490

## Task Look up and state reported EC50 for CC1c2c(cc(CN3CCN(c4cccnc4)CC3)c3cccnc23)C(=O)N1C1CCCCC1O (centres unmarked) [Example 164]
## Result 36

## Task Give reported EC50 value for O=C1c2cc(CN3CCC(F)(C#CC4CC4)CC3)c3cccnc3c2CN1[C@H]1CCCC[C@@H]1O [Example 132]
## Result 246

## Task Query EC50 for CC1c2c(cc(CN3CCN(c4ccccc4)CC3)c3cccnc23)C(=O)N1C1CCCCC1O (centres unmarked) [Example 175]
## Result 490

---

- System: acetylcholine muscarinic M1 receptor (Homo sapiens, UniProt P11229)
- Construct: expressed in transfected cells; host or cells: CHOnfat cells (CHO cells with an NFAT reporter) expressing hM1, kept under Geneticin selection
- Assay: muscarinic FLIPR assay: intracellular calcium in CHOnfat/hM1 cells, potentiation of EC20 acetylcholine
- Assay type: cell-based
- Study conditions: Table 3; inflection point calculated from the FLIPR values; EC20 acetylcholine (3 nM final); read-out: IP Value
Quantity kind: EC50 (nM)
Supply the numeric figure in nM, leaving out any unit text.

Answered cases to consult:
>  <Compound>
CC1c2c(cc(CN3CCC(C#N)(c4ccccn4)CC3)c3ccccc23)C(=O)N1[C@H]1CCCC[C@@H]1O (some centres unmarked) [Example 3]

>  <System>
acetylcholine muscarinic M1 receptor (Homo sapiens, UniProt P11229)

>  <Quantity kind>
EC50

>  <Value unit>
nM

>  <Recorded measurement>
19

$$$$
>  <Compound>
CCc1cccc(C2(C#N)CCN(Cc3cc4c(c5ccccc35)CN([C@H]3CCCC[C@@H]3O)C4=O)CC2)n1 [Example 5]

>  <System>
acetylcholine muscarinic M1 receptor (Homo sapiens, UniProt P11229)

>  <Quantity kind>
EC50

>  <Value unit>
nM

>  <Recorded measurement>
55

$$$$
>  <Compound>
O=C1c2cc(CN3CCC(F)(F)CC3)c3cccnc3c2CN1[C@H]1COCC[C@@H]1O [Example 8]

>  <System>
acetylcholine muscarinic M1 receptor (Homo sapiens, UniProt P11229)

>  <Quantity kind>
EC50

>  <Value unit>
nM

>  <Recorded measurement>
41

$$$$
>  <Compound>
Cc1cccc(C2(C#N)CCN(Cc3cc4c(c5ccccc35)CN([C@H]3CCCC[C@@H]3O)C4=O)CC2)n1 [Example 4]

>  <System>
acetylcholine muscarinic M1 receptor (Homo sapiens, UniProt P11229)

>  <Quantity kind>
EC50

>  <Value unit>
nM

>  <Recorded measurement>
27

$$$$

Here is another compound to look at.
## Task Please give the documented EC50 of N#CC1(c2ccccn2)CCN(Cc2cc3c(c4ccccc24)CN([C@H]2CCCC[C@@H]2O)C3=O)CC1 [Example 1]
## Result 10

---

Items are presented alongside their recorded pEC50.
- System: acetylcholine muscarinic M1 receptor (Homo sapiens, UniProt P11229)
- Construct: expressed in transfected cells; host or cells: CHOnfat cells (CHO cells with an NFAT reporter) expressing hM1, kept under Geneticin selection
- Assay: muscarinic FLIPR assay: intracellular calcium in CHOnfat/hM1 cells, potentiation of EC20 acetylcholine
- Type: cell-based
- Study conditions: Table 2; CHOnfat/hM1 cells, FLIPR, EC20 acetylcholine (3 nM final); read-out: M1 Pot.
Lab note — pEC50 values are minus log10 of concentrations in M.

Worked cases, answers included:
>  <Compound>
CCC1c2c(cc(CN3CCC(F)(F)CC3)c3cccnc23)C(=O)N1[C@@H]1CCCC[C@@H]1O (stereo partly shown) [Example 105]

>  <pEC50>
8.00

$$$$
>  <Compound>
CC1c2c(cc(CN3CCC(C#N)(c4ccccc4)CC3)c3cccnc23)C(=O)N1C1CCCCC1O (stereo not shown) [Example 138]

>  <pEC50>
7.16

$$$$
>  <Compound>
O=C1c2cc(CN3CCC(O)CC3)c3cccnc3c2CN1C1CCCCC1O (stereo not shown) [Example 89]

>  <pEC50>
6.54

$$$$
>  <Compound>
C[C@@H]1c2c(cc(CN3CCC(F)(c4ccccn4)CC3)c3cccnc23)C(=O)N1[C@H]1CCCC[C@@H]1O [Example 153]

>  <pEC50>
8.10

$$$$
>  <Compound>
N#CC1(F)CCN(Cc2cc3c(c4ncccc24)CN(c2cccc(O)c2)C3=O)CC1 [Example 127]

>  <pEC50>
7.36

$$$$
>  <Compound>
CC1(C)CCN(Cc2cc3c(c4ncccc24)CN(C2CCCCC2O)C3=O)CC1 (stereo not shown) [Example 100]

>  <pEC50>
6.37

$$$$

// moving on: another record for pEC50
## Task Report pEC50, nothing else, for this compound: O=C1c2cc(CN3CCC(c4ccccc4)CC3)c3cccnc3c2CN1C1CCCCC1O (stereo not shown) [Example 139]
## Result 7.07

---

# reported EC50; entries follow
- System: acetylcholine muscarinic M1 receptor (Homo sapiens, UniProt P11229)
- Construct: expressed in transfected cells; host or cells: CHOnfat cells (CHO cells with an NFAT reporter) expressing hM1, kept under Geneticin selection
- Assay: muscarinic FLIPR assay: intracellular calcium in CHOnfat/hM1 cells, potentiation of EC20 acetylcholine
- Type: cell-based
- Study conditions: Table 1; CHOnfat/hM1 cells, FLIPR, EC20 acetylcholine (3 nM final); read-out: M1 Pot.
Quick note: give the figure in nM, leave out the unit.

>  <Molecule>
C=Cc1cccc(C2(C#N)CCN(Cc3cc4c(c5ccccc35)CN([C@H]3CCCC[C@@H]3O)C4=O)CC2)n1 [Example 49]

>  <System>
acetylcholine muscarinic M1 receptor (Homo sapiens, UniProt P11229)

>  <Value unit>
nM

>  <EC50>
114

$$$$
>  <Molecule>
O=C1c2cc(CN3CCC(O)CC3)c3ccccc3c2CN1C1CCCCC1O (stereo not shown) [Example 22]

>  <System>
acetylcholine muscarinic M1 receptor (Homo sapiens, UniProt P11229)

>  <Value unit>
nM

>  <EC50>
480

$$$$
>  <Molecule>
O=C1c2cc(CN3CCC(O)(c4ccncc4)CC3)c3ccccc3c2CN1C1CCCCC1O (stereo not shown) [Example 43]

>  <System>
acetylcholine muscarinic M1 receptor (Homo sapiens, UniProt P11229)

>  <Value unit>
nM

>  <EC50>
830

$$$$

## Task Return value of EC50 for input O=C1c2cc(CN3CCOCC3)c3ccccc3c2CN1C1CCCCC1O (stereo not shown) [Example 24] , no commentary.
## Result 150

## Task Annotate the molecule CC1CCN(Cc2cc3c(c4ccccc24)CN([C@H]2CCCC[C@@H]2O)C3=O)CC1 [Example 21] with its measured EC50.
## Result 1500

## Task Output EC50 of O=C1c2cc(CN3CCC4(CC3)COc3ccccc34)c3ccccc3c2CN1C1CCCCC1O (stereo not shown) [Example 40]
## Result 720

## Task Answer with the recorded EC50 for the molecule listed here: COc1ccc(N2CCN(Cc3cc4c(c5ccccc35)CN([C@H]3CCCC[C@@H]3O)C4=O)CC2)cc1 [Example 69]
## Result 49

## Task Respond only with EC50 recorded for N#CC1(c2ccccn2)CCN(Cc2cc3c(c4ccccc24)CN([C@@H]2CCCC[C@@H]2O)C3=O)CC1 [Example 47]
## Result 147

## Task Note down EC50 recorded for O=C1c2cc(CN3CCC(c4ccccc4)CC3)c3ccccc3c2CN1C1CCCCC1O (stereo not shown) [Example 41]
## Result 1400

## Task Complete the entry with EC50 for O=C1c2cc(CN3CCC(C4CC4)CC3)c3ccccc3c2CN1C1CCCCC1O (stereo not shown) [Example 39]
## Result 5300

## Task Tell us which EC50 value is on record for N#CC1(c2cccc(Cl)n2)CCN(Cc2cc3c(c4ccccc24)CN([C@H]2CCCC[C@@H]2O)C3=O)CC1 [Example 48]
## Result 53

## Task Specify reported EC50 for the molecule shown: N#CC1(c2ccccn2)CCN(Cc2cc3c(c4ccccc24)CN([C@@H]2CCCC[C@H]2O)C3=O)CC1 [Example 46]
## Result 539

## Task Please list EC50 recorded for the molecule O=C1c2cc(CN3CCC(F)CC3)c3ccccc3c2CN1C1CCCCC1O (stereo not shown) [Example 26]
## Result 160

## Task Please give the documented EC50 of O=C1c2cc(CN3CCC(F)(c4ccccc4)CC3)c3ccccc3c2CN1[C@@H]1CCCC[C@H]1O [Example 53]
## Result 248

## Task Answer with reported EC50 of CC1CCCN(Cc2cc3c(c4ccccc24)CN(C2CCCCC2O)C3=O)C1 (stereo not shown) [Example 16]
## Result 7800
